target: AgrC-IV (Staphylococcus aureus, UniProt Q309Z2); format: cell-based, S. aureus; conditions: read-out: AgrC-IV IC50; second-generation analogues, fluorescence reporter strain; 200 fM − 10 μM
Sequence (Q309Z2 1-430): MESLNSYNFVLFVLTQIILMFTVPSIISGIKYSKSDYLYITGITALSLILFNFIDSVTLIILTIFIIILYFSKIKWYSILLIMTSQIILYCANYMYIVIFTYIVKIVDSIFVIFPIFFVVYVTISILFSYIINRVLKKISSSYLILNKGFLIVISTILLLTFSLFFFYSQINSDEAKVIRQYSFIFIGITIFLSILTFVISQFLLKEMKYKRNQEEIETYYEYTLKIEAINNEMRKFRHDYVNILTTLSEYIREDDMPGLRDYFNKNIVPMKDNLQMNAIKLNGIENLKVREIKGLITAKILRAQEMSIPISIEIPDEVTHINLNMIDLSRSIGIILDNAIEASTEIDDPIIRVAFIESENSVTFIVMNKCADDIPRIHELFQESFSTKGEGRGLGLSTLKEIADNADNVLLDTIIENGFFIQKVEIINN
Positions of bridges follow the written chain, without caps; N, C: chain ends. Residues, ends and D or L forms follow the SMILES beside them.
measured.property: IC50 (nM)
Reply numerically in nM, unit not repeated.

| compound | IC50 / nM |
| --- | --- |
| CC[C@H](C)[C@H](NC(=O)[C@@H](N)Cc1ccc(O)cc1)C(=O)N[C@@H](CC(N)=O)C(=O)N[C@H]1CSC(=O)[C@H](CC(C)C)NC(=O)[C@H](CC(C)C)NC(=O)[C@H](Cc2ccccc2)NC(=O)[C@H](CC(=O)O)NC1=O [Y-AIP-III, Y-I-N-(C-D-F-L-L)] (H-YINCDFLL; thioester 4-C) | 78.2 |

Provide one value: measured IC50 of CC(C)C[C@@H]1NC(=O)[C@H](Cc2ccccc2)NC(=O)[C@H](CC(=O)O)NC(=O)[C@@H](NC(=O)[C@H](C)NC(=O)[C@H](C)N)CSC(=O)[C@H](CC(C)C)NC1=O [AIP-III I1A/N2A, A-A-(C-D-F-L-L)] (H-AACDFLL; thioester 3-C)
5.41

Provide one value: measured IC50 of CC[C@H](C)[C@H](NC(=O)[C@H](C)N)C(=O)N[C@@H](CC(N)=O)C(=O)N[C@H]1CSC(=O)[C@H](CC(C)C)NC(=O)[C@H](CC(C)C)NC(=O)[C@H](Cc2ccccc2)NC(=O)[C@H](CC(=O)O)NC1=O [A-AIP-III, A-I-N-(C-D-F-L-L)] (H-AINCDFLL; thioester 4-C)
28.5

Provide one value: measured IC50 of CC(C)C[C@@H]1NC(=O)[C@H](Cc2ccccc2)NC(=O)[C@H](C)NC(=O)[C@@H](NC(=O)[C@H](CC(N)=O)NC(=O)[C@H](C)N)CSC(=O)[C@H](CC(C)C)NC1=O [AIP-III I1A/D4A, A-N-(C-A-F-L-L)] (H-ANCAFLL; thioester 3-C)
0.101

----------
molecular target: AgrC-II (Staphylococcus aureus, UniProt O33587); test: Hemolysis assay, wild-type group-II strain RN6923, rabbit red blood cells; details: read-out: AgrC-II IC50; hemolysis assay; 200 fM − 10 μM
Sequence (O33587 1-437): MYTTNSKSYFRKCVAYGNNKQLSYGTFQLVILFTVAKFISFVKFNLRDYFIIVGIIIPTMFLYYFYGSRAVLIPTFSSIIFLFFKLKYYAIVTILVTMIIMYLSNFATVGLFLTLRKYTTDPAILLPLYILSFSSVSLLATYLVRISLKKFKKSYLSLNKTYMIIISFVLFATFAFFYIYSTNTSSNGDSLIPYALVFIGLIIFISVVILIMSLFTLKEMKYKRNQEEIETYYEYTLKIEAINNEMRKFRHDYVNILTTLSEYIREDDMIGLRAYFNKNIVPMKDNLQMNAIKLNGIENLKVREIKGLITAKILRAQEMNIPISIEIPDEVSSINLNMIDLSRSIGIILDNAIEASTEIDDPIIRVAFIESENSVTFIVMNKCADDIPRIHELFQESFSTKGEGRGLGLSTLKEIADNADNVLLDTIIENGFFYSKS
Positions of bridges follow the written chain, without caps; N, C: chain ends. Residues, ends and D or L forms follow the SMILES beside them.
measured.property: pIC50
// pIC50: -log10(molar conc.)

Provide one value: measured pIC50 of CC(C)C[C@@H]1NC(=O)[C@H](Cc2ccccc2)NC(=O)[C@H](CC(=O)O)NC(=O)[C@@H](NC(=O)[C@H](CC(N)=O)NC(=O)[C@H](C)N)CSC(=O)[C@H](CC(C)C)NC1=O [AIP-III I1A, A-N-(C-D-F-L-L)] (H-ANCDFLL; thioester 3-C)
8.89

----------
biological target: AgrC-II (Staphylococcus aureus, UniProt O33587); format: cell-based, S. aureus; settings: read-out: AgrC-II IC50; second-generation analogues, fluorescence reporter strain; 200 fM − 10 μM
Positions of bridges follow the written chain, without caps; N, C: chain ends. Residues, ends and D or L forms follow the SMILES beside them.
measured.property: IC50 (nM)
Reply numerically in nM, unit not repeated.

Fetch value of IC50 on AgrC-II (Staphylococcus aureus, UniProt O33587) for CC[C@H](C)[C@H](NC(=O)[C@H](C)N)C(=O)N[C@@H](CC(N)=O)C(=O)N[C@H]1CSC(=O)[C@H](CC(C)C)NC(=O)[C@H](CC(C)C)NC(=O)[C@H](Cc2ccccc2)NC(=O)[C@H](CC(=O)O)NC1=O [A-AIP-III, A-I-N-(C-D-F-L-L)] (H-AINCDFLL; thioester 4-C) .
6.4

----------
Catalogue of log10 IC50 readings, one per entry.
molecular target: AgrC-II (Staphylococcus aureus, UniProt O33587); assay: Hemolysis assay, wild-type group-II strain RN6923, rabbit red blood cells; settings: read-out: AgrC-II IC50; selected second-generation analogues, hemolysis assay; 200 fM − 10 μM
Positions of bridges follow the written chain, without caps; N, C: chain ends. Residues, ends and D or L forms follow the SMILES beside them.
In our notation, the value equals log10 of IC50 in pM.

| molecule | measured.property | observed.result |
| --- | --- | --- |
| CC(=O)N[C@H]1CSC(=O)[C@H](CC(C)C)NC(=O)[C@H](CC(C)C)NC(=O)[C@H](Cc2ccc(O)cc2)NC(=O)[C@H](C)NC1=O [tAIP-III D2A/F3Y, Ac-(C-A-Y-L-L)] (Ac-CAYLL; thioester 1-C) | log10 IC50 | 2.31 |

Now look at this entry.
Provide one value: measured log10 IC50 of CC(C)C[C@@H]1NC(=O)[C@H](Cc2ccccc2)NC(=O)[C@H](C)NC(=O)[C@@H](NC(=O)[C@H](C)NC(=O)[C@H](C)N)CSC(=O)[C@H](CC(C)C)NC1=O [AIP-III I1A/N2A/D4A, A-A-(C-A-F-L-L)] (H-AACAFLL; thioester 3-C)
1.78

----------
biological target: AgrC-I (Staphylococcus aureus); type: cell-based, S. aureus; details: read-out: AgrC-I IC50; fluorescence reporter strain; AIPs tested over 200 fM − 10 μM or (b1) 2.5 pM − 10 μM; triplicate
Sequence (O07911 1-430): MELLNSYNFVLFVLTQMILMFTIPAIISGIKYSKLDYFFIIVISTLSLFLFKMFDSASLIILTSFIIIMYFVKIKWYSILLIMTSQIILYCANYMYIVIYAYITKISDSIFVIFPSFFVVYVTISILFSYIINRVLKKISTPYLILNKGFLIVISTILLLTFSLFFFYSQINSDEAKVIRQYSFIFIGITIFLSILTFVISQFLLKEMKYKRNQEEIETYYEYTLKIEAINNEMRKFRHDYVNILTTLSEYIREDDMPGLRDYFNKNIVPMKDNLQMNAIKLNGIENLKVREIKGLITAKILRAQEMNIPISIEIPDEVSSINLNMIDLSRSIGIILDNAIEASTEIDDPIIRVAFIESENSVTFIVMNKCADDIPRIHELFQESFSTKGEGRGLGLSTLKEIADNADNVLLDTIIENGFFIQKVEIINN
Positions of bridges follow the written chain, without caps; N, C: chain ends. Non-standard residues stand in square brackets, D forms with d. Residues, ends and D or L forms follow the SMILES beside them. NMeF = CN[C@@H](Cc1ccccc1)C(=O)O; Nphe = O=C(O)CNCc1ccccc1
Catalogue of IC50 readings, one per entry.
Reply numerically in nM, unit not repeated.

| molecule | target.entity | measured.property | observed.result |
| --- | --- | --- | --- |
| CC(C)C[C@@H]1NC(=O)[C@H](Cc2ccccc2)NC(=O)[C@H](CC(=O)O)NC(=O)[C@@H](NC(=O)[C@H](CC(N)=O)NC(=O)[C@H](C)N)CSC(=O)[C@H](CC(C)C)NC1=O [AIP-III I1A, A-N-(C-D-F-L-L)] (H-ANCDFLL; thioester 3-C) | AgrC-I (Staphylococcus aureus) | IC50 | 17.9 |
| CC[C@H](C)[C@H](N)C(=O)N[C@@H](CC(N)=O)C(=O)N[C@H]1CSC(=O)[C@H](CC(C)C)NC(=O)[C@H](CC(C)C)NC(=O)CN(Cc2ccccc2)C(=O)[C@H](CC(=O)O)NC1=O [AIP-III nF5, I-N-(C-D-nF-L-L)] (H-INCD[Nphe]LL; thioester 3-C) | AgrC-I (Staphylococcus aureus) | IC50 | 13.8 |

Now look at this entry.
Fetch value of IC50 on AgrC-I (Staphylococcus aureus) for CC[C@H](C)[C@H](N)C(=O)N[C@@H](CC(N)=O)C(=O)N[C@H]1CSC(=O)[C@H](CC(C)C)NC(=O)[C@H](CC(C)C)NC(=O)[C@H](Cc2ccccc2)N(C)C(=O)[C@H](CC(=O)O)NC1=O [AIP-III N-Me-F5, I-N-(C-D-NMeF-L-L)] (H-INCD[NMeF]LL; thioester 3-C) .
4.49

----------
target: UniProt O07911; assay: Hemolysis assay, wild-type group-I strain RN6390B, rabbit red blood cells; settings: read-out: AgrC-I IC50; selected second-generation analogues, hemolysis assay; 200 fM − 10 μM
Positions of bridges follow the written chain, without caps; N, C: chain ends. Residues, ends and D or L forms follow the SMILES beside them.
measured.property: IC50
# answer = value followed by unit

| molecule | IC50 |
| --- | --- |
| CC[C@H](C)[C@H](N)C(=O)N[C@@H](C)C(=O)N[C@H]1CSC(=O)[C@H](CC(C)C)NC(=O)[C@H](CC(C)C)NC(=O)[C@H](Cc2ccccc2)NC(=O)[C@H](C)NC1=O [AIP-III N2A/D4A, I-A-(C-A-F-L-L)] (H-IACAFLL; thioester 3-C) | 0.0362 nM |
| CC(C)C[C@@H]1NC(=O)[C@H](Cc2ccccc2)NC(=O)[C@H](C)NC(=O)[C@@H](NC(=O)[C@H](C)NC(=O)[C@H](C)N)CSC(=O)[C@H](CC(C)C)NC1=O [AIP-III I1A/N2A/D4A, A-A-(C-A-F-L-L)] (H-AACAFLL; thioester 3-C) | 0.0411 nM |
| CC(=O)N[C@H]1CSC(=O)[C@H](CC(C)C)NC(=O)[C@H](CC(C)C)NC(=O)[C@H](Cc2ccccc2)NC(=O)[C@H](C)NC1=O [tAIP-III D2A, Ac-(C-A-F-L-L)] (Ac-CAFLL; thioester 1-C) | 0.332 nM |
| CC(=O)N[C@H]1CSC(=O)[C@H](CC(C)C)NC(=O)[C@H](CC(C)C)NC(=O)[C@H](Cc2c[nH]c3ccccc23)NC(=O)[C@H](C)NC1=O [Ac-(C-A-W-L-L)] (Ac-CAWLL; thioester 1-C) | 0.468 nM |
| CC(C)C[C@@H]1NC(=O)[C@H](Cc2ccccc2)NC(=O)[C@H](C)NC(=O)[C@@H](NC(=O)[C@H](CC(N)=O)NC(=O)[C@H](C)N)CSC(=O)[C@H](CC(C)C)NC1=O [AIP-III I1A/D4A, A-N-(C-A-F-L-L)] (H-ANCAFLL; thioester 3-C) | 0.0103 nM |

Now look at this entry.
Provide one value: measured IC50 of CC(=O)N[C@H]1CSC(=O)[C@H](CC(C)C)NC(=O)[C@H](CC(C)C)NC(=O)[C@H](Cc2ccc(O)cc2)NC(=O)[C@H](C)NC1=O [tAIP-III D2A/F3Y, Ac-(C-A-Y-L-L)] (Ac-CAYLL; thioester 1-C)
0.279 nM
